molecular target: cloned human M3 muscarinic receptor (Homo sapiens); experiment: Muscarinic binding activity, 3H-QNB displacement, M3; conditions: membranes from stably transfected CHO cells, 3H-QNB 100-200 pM, 25° C., 90 minutes
Sequence (P20309 whole entry): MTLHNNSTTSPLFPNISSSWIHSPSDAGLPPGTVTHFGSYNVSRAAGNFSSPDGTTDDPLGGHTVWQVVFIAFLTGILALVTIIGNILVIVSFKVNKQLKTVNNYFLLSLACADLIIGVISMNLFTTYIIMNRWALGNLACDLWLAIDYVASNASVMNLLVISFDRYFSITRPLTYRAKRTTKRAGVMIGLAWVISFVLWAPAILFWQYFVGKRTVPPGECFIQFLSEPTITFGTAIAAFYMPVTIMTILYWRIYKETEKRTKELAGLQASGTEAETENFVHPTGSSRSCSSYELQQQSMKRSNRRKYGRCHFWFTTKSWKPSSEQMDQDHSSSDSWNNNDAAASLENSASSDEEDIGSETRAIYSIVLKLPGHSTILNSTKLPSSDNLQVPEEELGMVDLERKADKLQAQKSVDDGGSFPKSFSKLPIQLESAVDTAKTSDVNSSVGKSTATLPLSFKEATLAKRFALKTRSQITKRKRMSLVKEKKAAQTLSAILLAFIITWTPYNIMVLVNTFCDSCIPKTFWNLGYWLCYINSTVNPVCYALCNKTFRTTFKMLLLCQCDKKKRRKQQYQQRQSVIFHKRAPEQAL
METRIC NAME: Ki

Solved entries (count: 3):
1) CC(C)Oc1ccc(C2C(Cl)(Cl)C23CCN(C2CCN(C(=O)c4cccc(Cl)c4Cl)CC2)CC3)cc1 (centres unmarked) = > 1000 nM
2) CC(C)Oc1ccc(C2C(Cl)(Cl)C23CCN(C2CCN(C(=O)c4cccc(F)c4N)CC2)CC3)cc1 (centres unmarked) = > 1000 nM
3) CC(C)Oc1ccc(C2(C)CC23CCN(C2CCN(C(=O)c4cccc(Cl)c4N)CC2)CC3)cc1 (centres unmarked) = 691 nM

Quick one: give measured Ki for Cc1cccc(C(=O)N2CCC(N3CCC4(CC3)C(c3ccc(OC(C)C)cc3)C4(Cl)Cl)CC2)c1Cl (centres unmarked)
> 1000 nM

Quick one: give measured Ki for CC(C)Oc1ccc(C2CC23CCN(C2CCN(C(=O)c4cccc(Cl)c4N)CC2)CC3)cc1 (centres unmarked)
> 1000 nM

Quick one: give measured Ki for Cc1cccc(C(=O)N2CCC(N3CCC4(CC3)C(c3ccc(OC(C)C)cc3)C4(Cl)Cl)CC2)c1N (centres unmarked)
> 1000 nM

Quick one: give measured Ki for Cc1c(Cl)cccc1C(=O)N1CCC(N2CCC3(CC2)CC3(C)c2ccc(OC(C)C)cc2)CC1 (centres unmarked)
> 1200 nM

Quick one: give measured Ki for Cc1c(Cl)cccc1C(=O)N1CCC(N2CCC3(CC2)CC3c2ccc(OC(C)C)cc2)CC1 (centres unmarked)
> 1000 nM

Quick one: give measured Ki for CC(C)Oc1ccc(C2(C)CC23CCN(C2CCN(C(=O)c4cccc(Cl)c4Cl)CC2)CC3)cc1 (centres unmarked)
> 1200 nM

Quick one: give measured Ki for CC(C)Oc1ccc(C2CC23CCN(C2CCN(C(=O)c4cccc(Cl)c4Cl)CC2)CC3)cc1 (centres unmarked)
> 1000 nM

Quick one: give measured Ki for CC(C)Oc1ccc(C2C(Cl)(Cl)C23CCN(C2CCN(C(=O)c4cccc(Cl)c4N)CC2)CC3)cc1 (centres unmarked)
> 1000 nM
